biological target: MDM2 (Homo sapiens, UniProt Q00987); assay: Competitive fluorescence polarization assay for MDM2; format: binding; conditions: competitive FP assay, MDM2; read-out: IC50 (MDM2)
Sequence (Q00987 1-125): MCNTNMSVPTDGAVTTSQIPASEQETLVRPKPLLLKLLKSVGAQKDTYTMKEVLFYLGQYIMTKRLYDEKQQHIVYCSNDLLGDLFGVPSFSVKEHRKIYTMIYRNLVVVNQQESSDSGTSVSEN
Where a SMILES comes first, the peptide text is derived from it. Bridges are numbered along the chain shown (N, C = ends). [ ]: non-standard residue; d: D form. R8 = C=CCCCCCC[C@@](C)(N)C(=O)O; S5 = C=CCCC[C@](C)(N)C(=O)O
IC50 values, listed per item
experimental-endpoint: IC50

{"compound": "CC(=O)N[C@@H](CCC(=O)O)C(=O)N[C@H](C(=O)N[C@@H](Cc1ccccc1)C(=O)N[C@]1(C)CCCCCCC=CCCC[C@@](C)(C(=O)N[C@@H](CO)C(=O)N[C@@H](CC(C)C)C(=O)N[C@@H](C)C(N)=O)NC(=O)[C@H](CC(C)C)NC(=O)[C@H](CCC(N)=O)NC(=O)[C@H](C)NC(=O)[C@H](Cc2c[nH]c3ccccc23)NC(=O)[C@H](Cc2ccc(O)cc2)NC(=O)[C@H](C(C)C)NC1=O)[C@@H](C)O [compound 127] (Ac-ETF[R8]VYWAQL[S5]SLA-NH2; staple 4-11)", "measurement-target": "MDM2 (Homo sapiens, UniProt Q00987)", "experimental-endpoint": "IC50", "observed-result": "< 10 nM"}
{"compound": "CCCC[C@H](NC(=O)[C@H](C)NC(=O)[C@H](CO)NC(=O)[C@]1(C)CCCC=CCCCCCC[C@@](C)(NC(=O)[C@H](Cc2ccccc2)NC(=O)[C@@H](NC(=O)[C@H](CC(C)C)NC(C)=O)[C@@H](C)O)C(=O)N[C@@H](CCC(=O)O)C(=O)N[C@@H](Cc2ccc(C(=O)O)cc2)C(=O)N[C@@H](Cc2c[nH]c3cc(Cl)ccc23)C(=O)N[C@@H](C)C(=O)N[C@@H](CCC(N)=O)C(=O)N[C@@H](CC2CCC2)C(=O)N1)C(=O)N[C@@H](C)C(N)=O (single isomer, unassigned)", "measurement-target": "MDM2 (Homo sapiens, UniProt Q00987)", "experimental-endpoint": "IC50", "observed-result": "< 10 nM"}

----------
Ki listing for selected molecules.
Target: MDMX (Homo sapiens, UniProt O15151)
Sequence (O15151 1-125): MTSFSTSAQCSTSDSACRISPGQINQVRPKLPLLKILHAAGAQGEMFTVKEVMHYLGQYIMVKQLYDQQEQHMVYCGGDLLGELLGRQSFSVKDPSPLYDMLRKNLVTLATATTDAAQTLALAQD
Test: Competitive fluorescence polarization assay for MDMX
Format: binding
Conditions: competitive FP assay, read-out: Ki (MDMX)
Where a SMILES comes first, the peptide text is derived from it. Bridges are numbered along the chain shown (N, C = ends). [ ]: non-standard residue; d: D form. The star is where a group is joined. Palmitoyl = CCCCCCCCCCCCCCCC(=O)*; R8 = C=CCCCCCC[C@@](C)(N)C(=O)O; Cba = N[C@@H](CC1CCC1)C(=O)O; S5 = C=CCCC[C@](C)(N)C(=O)O

{"molecule": "CC(=O)N[C@@H](CC(C)C)C(=O)N[C@H](C(=O)N[C@@H](Cc1ccccc1)C(=O)N[C@]1(C)CCCCCCC=CCCC[C@@](C)(C(=O)N[C@@H](C)C(=O)N[C@@H](Cc2c[nH]cn2)C(=O)N[C@@H](Cc2ccccc2)C(=O)N[C@@H](C)C(N)=O)NC(=O)[C@H](CC(C)C)NC(=O)[C@H](C)NC(=O)[C@H](C)NC(=O)[C@H](Cc2c[nH]c3ccccc23)NC(=O)[C@H](Cc2ccc(O)cc2)NC(=O)[C@H](C)NC1=O)[C@@H](C)O [compound 204] (Ac-LTF[R8]AYWAAL[S5]AHFA-NH2; staple 4-11)", "Ki": "10 to 100 nM"}
{"molecule": "CCCCCCCCCCCCCCCC(=O)N[C@@H](CCC(=O)O)C(=O)N[C@H](C(=O)N[C@@H](Cc1ccccc1)C(=O)N[C@]1(C)CCCCCCC=CCCC[C@@](C)(C(=O)N[C@@H](CO)C(=O)N[C@@H](C)C(=O)N[C@@H](C)C(N)=O)NC(=O)[C@H](CC2CCC2)NC(=O)[C@H](CCC(N)=O)NC(=O)[C@H](C)NC(=O)[C@H](Cc2c[nH]c3ccccc23)NC(=O)[C@H](Cc2ccc(O)cc2)NC(=O)[C@H](CCC(=O)O)NC1=O)[C@@H](C)O [compound 250] (Palmitoyl-ETF[R8]EYWAQ[Cba][S5]SAA-NH2; staple 4-11)", "Ki": "> 1000 nM"}

----------
target: MDM2 (Homo sapiens, UniProt Q00987); assay: Competitive fluorescence polarization assay for MDM2; type: binding; conditions: competitive FP assay, MDM2; read-out: IC50 (MDM2)
pIC50: −log10 of the molar value. Where a SMILES comes first, the peptide text is derived from it. Bridges are numbered along the chain shown (N, C = ends). [ ]: non-standard residue; d: D form. R8 = C=CCCCCCC[C@@](C)(N)C(=O)O; S5 = C=CCCC[C@](C)(N)C(=O)O

{"compound": "CC(=O)N[C@@H](CC(C)C)C(=O)N[C@H](C(=O)N[C@@H](Cc1ccccc1)C(=O)N[C@]1(C)CCCCCCC=CCCC[C@@](C)(C(=O)N[C@@H](CO)C(=O)N[C@@H](CO)C(=O)N[C@H](C)C(N)=O)NC(=O)[C@H](CC(C)C)NC(=O)[C@H](CCC(N)=O)NC(=O)[C@H](C)NC(=O)[C@H](Cc2c[nH]c3ccccc23)NC(=O)[C@H](Cc2ccc(O)cc2)NC(=O)[C@H](C(C)C)NC1=O)[C@@H](C)O [compound 133] (Ac-LTF[R8]VYWAQL[S5]SS[dA]-NH2; staple 4-11)", "pIC50": "> 8.00"}

----------
molecular target: UniProt:O15151; assay: Competitive fluorescence polarization assay for MDMX; format: binding; details: competitive FP assay, read-out: IC50 (MDMX)

{"molecule": "CCCC[C@H](NC(=O)[C@H](C)NC(=O)[C@H](C)NC(=O)[C@]1(C)CCCC=CCCCCCC[C@@](C)(NC(=O)[C@H](Cc2ccccc2)NC(=O)[C@@H](NC(=O)[C@H](CC(C)C)NC(C)=O)[C@@H](C)O)C(=O)N[C@@H](C)C(=O)N[C@@H](Cc2ccc(O)cc2)C(=O)N[C@@H](Cc2c[nH]c3ccccc23)C(=O)N[C@@H](C)C(=O)N[C@@H](CCC(N)=O)C(=O)N[C@@H](CC(C)C)C(=O)N1)C(=O)N[C@@H](C)C(=O)NCCC (single isomer, unassigned) [compound 423]", "IC50": "10 to 100 nM"}

----------
molecular target: MDMX (Homo sapiens); experiment: Competitive fluorescence polarization assay for MDMX; format: binding; conditions: competitive FP assay, read-out: IC50 (MDMX)

{"compound": "CC(C)CC[C@@H]1NC(=O)[C@H](CCC(N)=O)NC(=O)[C@H](C)NC(=O)[C@H](Cc2c[nH]c3ccccc23)NC(=O)[C@H](Cc2ccc(O)cc2)NC(=O)[C@H](CCC(=O)O)NC(=O)[C@](C)(NC(=O)[C@H](Cc2ccccc2)NC(=O)[C@@H](NC(=O)[C@H](CC(C)C)NC(=O)C(C)(C)C)[C@@H](C)O)CCCCCCC=CCCC[C@@](C)(C(=O)N[C@@H](CO)C(=O)N[C@@H](C)C(=O)N[C@@H](C)C(N)=O)NC1=O [compound 284]", "measurement-target": "MDMX (Homo sapiens)", "IC50": "100 to 1000 nM"}
{"compound": "CCCC[C@H](NC(=O)[C@H](C)NC(=O)[C@H](C)NC(=O)[C@]1(C)CCC/C=C/CCCCCC[C@@](C)(NC(=O)[C@H](Cc2ccccc2)NC(=O)[C@@H](NC(=O)[C@H](CC(C)C)NC(C)=O)[C@@H](C)O)C(=O)N[C@@H](C)C(=O)N[C@@H](Cc2ccc(O)cc2)C(=O)N[C@@H](Cc2c[nH]c3ccccc23)C(=O)N[C@@H](C)C(=O)N[C@@H](CCC(N)=O)C(=O)N[C@@H](CC(C)C)C(=O)N1)C(=O)N[C@@H](C)C(N)=O [compound 69]", "measurement-target": "MDMX (Homo sapiens)", "IC50": "100 to 1000 nM"}
{"compound": "CC[C@H](C)[C@H](NC(=O)[C@H](C)NC(=O)[C@H](C)NC(=O)[C@]1(C)CCCC=CCCCCCC[C@@](C)(NC(=O)[C@H](Cc2ccccc2)NC(=O)[C@@H](NC(=O)[C@H](CC(C)C)NC(C)=O)[C@@H](C)O)C(=O)N[C@@H](C)C(=O)N[C@@H](Cc2ccc(C(=O)O)cc2)C(=O)N[C@@H](Cc2c[nH]c3ccccc23)C(=O)N[C@@H](C)C(=O)N[C@@H](CCC(N)=O)C(=O)N[C@@H](CC(C)C)C(=O)N1)C(=O)N[C@H](C)C(N)=O (single isomer, unassigned) [compound 182]", "measurement-target": "MDMX (Homo sapiens)", "IC50": "100 to 1000 nM"}
